Tested on: Escherichia coli
Test: Antimicrobial activity against Escherichia coli D22 at 128 ug/ml incubated 18 to 24 hrs by broth microdilution method
Type: functional, organism-based
Details: dose 128.0 µg/ml, time 18-24 hrs
The source made the active and inactive calls. No cut-off for these calls is given here. Where a SMILES comes first, the peptide text is derived from it. [ ]: non-standard residue; d: D form. The star is where a group is joined. Acryloyl(3-(3-pyridyl),E) = O=C(/C=C/c1cccnc1)*; Phe(3,4-Cl2) = N[C@@H](Cc1ccc(Cl)c(Cl)c1)C(=O)O; Oic = O=C(O)[C@@H]1C[C@@H]2CCCC[C@@H]2N1; Cha = N[C@@H](CC1CCCCC1)C(=O)O; NMeD = CN[C@@H](CC(=O)O)C(=O)O; X1 = O=C(/C=C/c1ccccc1)*; Sar = CNCC(=O)O
quantity_name: Activity

Please review the entries below; each comes with its answer.
compound	quantity_name	result
CC(C)C[C@H](NC(=O)[C@H](CC(=O)O)NC(=O)[C@H](CC1CCCCC1)NC(=O)[C@H](CCC(N)=O)NC(=O)/C=C/c1ccccc1)C(=O)N[C@@H](Cc1ccccc1)C(=O)O (X1-Q[Cha]DLF-OH)	Activity	inactive
CC(C)C[C@H](NC(=O)[C@H](CC(=O)O)N(C)C(=O)[C@H](CC1CCCCC1)NC(=O)[C@H](CCC(N)=O)NC(=O)/C=C/c1cccnc1)C(=O)N[C@@H](Cc1ccc(Cl)c(Cl)c1)C(=O)O ({Acryloyl(3-(3-pyridyl),E)}-Q[Cha][NMeD]L[Phe(3,4-Cl2)]-OH)	Activity	inactive
CC(C)C[C@H](NC(=O)[C@H](CC(=O)O)NC(=O)[C@H](CC1CCCCC1)NC(=O)[C@H](CCC(N)=O)NC(=O)/C=C/c1cccnc1)C(=O)N[C@@H](Cc1ccccc1)C(=O)O ({Acryloyl(3-(3-pyridyl),E)}-Q[Cha]DLF-OH)	Activity	inactive
CC(C)C[C@H](NC(=O)[C@H](CC(=O)O)N(C)C(=O)[C@H](CC1CCCCC1)NC(=O)[C@H](CCC(N)=O)NC(=O)/C=C/c1cccnc1)C(=O)N1CCC[C@H]1C(=O)N[C@@H](Cc1ccccc1)C(=O)O ({Acryloyl(3-(3-pyridyl),E)}-Q[Cha][NMeD]LPF-OH)	Activity	inactive
CC(=O)N[C@@H](CCC(N)=O)C(=O)N[C@@H](CC1CCCCC1)C(=O)N[C@@H](CC(=O)O)C(=O)N[C@@H](CC(C)C)C(=O)N(C)CC(=O)N[C@@H](CC(C)C)C(=O)O (Ac-Q[Cha]DL[Sar]L-OH)	Activity	inactive

Consider the compound shown here: CC(=O)N[C@@H](CCC(N)=O)C(=O)N[C@@H](CC1CCCCC1)C(=O)N[C@@H](CC(=O)O)C(=O)N[C@@H](CC(C)C)C(=O)N1[C@H](C(=O)N[C@@H](Cc2ccc(Cl)c(Cl)c2)C(=O)O)C[C@@H]2CCCC[C@@H]21 (Ac-Q[Cha]DL[Oic][Phe(3,4-Cl2)]-OH) What is its recorded Activity?
inactive

====

Entries annotated with measured K
System: Escherichia coli
Test: Binding affinity to Escherichia coli sliding clamp assessed as dissociation rate constant by ITC analysis
Where a SMILES comes first, the peptide text is derived from it. [ ]: non-standard residue; d: D form. The star is where a group is joined. Caffeoyl = O=C(/C=C/c1ccc(O)c(O)c1)*; Cha = N[C@@H](CC1CCCCC1)C(=O)O; NHPhenethyl = c1ccc(CCN*)cc1; X1 = O=C(/C=C/c1ccccc1)*

Please review the entries below; each comes with its answer.
compound	K
CC(=O)N[C@@H](CCC(N)=O)C(=O)N[C@@H](CC1CCCCC1)C(=O)N[C@@H](CC(=O)O)C(=O)N[C@@H](CC(C)C)C(=O)N[C@@H](Cc1ccccc1)C(N)=O (Ac-Q[Cha]DLF-NH2)	9.1 10^-3/s
CC(=O)N[C@@H](CCC(N)=O)C(=O)N[C@@H](CC1CCCCC1)C(=O)N[C@@H](CC(=O)O)C(=O)N[C@@H](CC(C)C)C(=O)NCC(=O)N[C@@H](Cc1ccccc1)C(=O)O (Ac-Q[Cha]DLGF-OH)	1.1 10^-2/s
CC(=O)N[C@@H](CCC(N)=O)C(=O)N[C@@H](CC1CCCCC1)C(=O)N[C@@H](CC(=O)O)C(=O)N[C@@H](CC(C)C)C(=O)NCCc1ccccc1 (Ac-Q[Cha]DL-NHPhenethyl)	1.8 10^-2/s
CC(C)C[C@H](NC(=O)[C@H](CC(=O)O)NC(=O)[C@H](CC1CCCCC1)NC(=O)[C@H](CCC(N)=O)NC(=O)/C=C/c1ccc(O)c(O)c1)C(=O)N[C@@H](Cc1ccccc1)C(=O)O (Caffeoyl-Q[Cha]DLF-OH)	4.7 10^-3/s

Could you now consider this next compound?
Consider the compound shown here: CC(C)C[C@H](NC(=O)[C@@H]1CCCN1C(=O)[C@H](CC(C)C)NC(=O)[C@H](CC(=O)O)NC(=O)[C@H](CC1CCCCC1)NC(=O)[C@H](CCC(N)=O)NC(=O)/C=C/c1ccccc1)C(=O)O (X1-Q[Cha]DLPL-OH) What is its recorded K?
8 10^-3/s

====

Entries annotated with measured Kd
Assay: Binding affinity to Escherichia coli sliding clamp assessed as dissociation constant by ITC analysis
Where a SMILES comes first, the peptide text is derived from it. [ ]: non-standard residue; d: D form. The star is where a group is joined. Phe(3,4-Cl2) = N[C@@H](Cc1ccc(Cl)c(Cl)c1)C(=O)O; Phe(3,4-F2) = N[C@@H](Cc1ccc(F)c(F)c1)C(=O)O; Cinnamoyl(4-F) = O=C(/C=C/c1ccc(F)cc1)*; NMeR = CN[C@@H](CCCNC(=N)N)C(=O)O; Cha = N[C@@H](CC1CCCCC1)C(=O)O; NMeD = CN[C@@H](CC(=O)O)C(=O)O; X1 = O=C(/C=C/c1ccccc1)*
Enter your answer as a number in nM; do not include the unit.

Please review the entries below; each comes with its answer.
compound	quantity_name	readout_units	numeric_value
CC(=O)N[C@@H](CCC(N)=O)C(=O)N[C@@H](CC1CCCCC1)C(=O)N(C)[C@@H](CC(=O)O)C(=O)N[C@@H](CC(C)C)C(=O)N[C@@H](Cc1ccc(F)c(F)c1)C(=O)O (Ac-Q[Cha][NMeD]L[Phe(3,4-F2)]-OH)	Kd	nM	148
CC(C)C[C@H](NC(=O)[C@H](CC(=O)O)N(C)C(=O)[C@H](CC1CCCCC1)NC(=O)[C@H](CCC(N)=O)NC(=O)/C=C/c1ccc(F)cc1)C(=O)N[C@@H](Cc1ccc(F)c(F)c1)C(=O)O ({Cinnamoyl(4-F)}-Q[Cha][NMeD]L[Phe(3,4-F2)]-OH)	Kd	nM	99
CC(C)C[C@H](NC(=O)[C@@H]1CCCN1C(=O)[C@H](CC(C)C)NC(=O)[C@H](CC(=O)O)NC(=O)[C@H](CC1CCCCC1)NC(=O)[C@H](CCC(N)=O)NC(=O)/C=C/c1ccccc1)C(=O)O (X1-Q[Cha]DLPL-OH)	Kd	nM	132
CC(C)C[C@H](NC(=O)[C@H](CC(=O)O)NC(=O)[C@H](CC1CCCCC1)NC(=O)[C@H](CCC(N)=O)NC(=O)/C=C/c1ccc(F)cc1)C(=O)N[C@@H](Cc1ccccc1)C(=O)O ({Cinnamoyl(4-F)}-Q[Cha]DLF-OH)	Kd	nM	144
CC(C)C[C@H](NC(=O)[C@H](CC(=O)O)NC(=O)[C@H](CC1CCCCC1)NC(=O)[C@H](CCC(N)=O)NC(=O)/C=C/c1ccccc1)C(=O)N[C@@H](Cc1ccccc1)C(=O)O (X1-Q[Cha]DLF-OH)	Kd	nM	129
CC(=O)N[C@@H](CCC(N)=O)C(=O)N[C@@H](CC1CCCCC1)C(=O)N(C)[C@@H](CC(=O)O)C(=O)N[C@@H](CC(C)C)C(=O)N[C@@H](Cc1ccccc1)C(=O)O (Ac-Q[Cha][NMeD]LF-OH)	Kd	nM	114

Could you now consider this next compound?
Consider the compound shown here: CC(=O)N(C)[C@@H](CCCNC(=N)N)C(=O)N[C@@H](CCC(N)=O)C(=O)N[C@@H](CC1CCCCC1)C(=O)N(C)[C@@H](CC(=O)O)C(=O)N[C@@H](CC(C)C)C(=O)N[C@@H](Cc1ccc(Cl)c(Cl)c1)C(=O)O (Ac-[NMeR]Q[Cha][NMeD]L[Phe(3,4-Cl2)]-OH) What is its recorded Kd?
92

====

Assay: Binding affinity to Escherichia coli sliding clamp assessed as dissociation constant by ITC analysis
*1 amine or outer side, *2 acyl side, *3 side chain or, on linkers, in order; H or OH if unused. Where a SMILES comes first, the peptide text is derived from it. [ ]: non-standard residue; d: D form. The star is where a group is joined. NEtAsp = CCN([C@@H](CC(=O)[*:3])C(=O)[*:2])[*:1]; Acryloyl(3-(3-pyridyl),E) = O=C(/C=C/c1cccnc1)*; Phe(3,4-Cl2) = N[C@@H](Cc1ccc(Cl)c(Cl)c1)C(=O)O; NMeR = CN[C@@H](CCCNC(=N)N)C(=O)O; Cha = N[C@@H](CC1CCCCC1)C(=O)O; NMeD = CN[C@@H](CC(=O)O)C(=O)O; Phe(ol) = N[C@H](CO)Cc1ccccc1; NHPhenethyl = c1ccc(CCN*)cc1
quantity_name: pKd
When answering, recall that pKd equals minus log10 of the concentration in mol/L, and write that number alone.

compound	pKd
CC(=O)N(C)[C@@H](CCCNC(=N)N)C(=O)N[C@@H](CCC(N)=O)C(=O)N[C@@H](CC1CCCCC1)C(=O)N[C@@H](CC(=O)O)C(=O)N[C@@H](CC(C)C)C(=O)N[C@@H](Cc1ccccc1)C(=O)O (Ac-[NMeR]Q[Cha]DLF-OH)	5.67

Consider the compound shown here: CC(=O)N[C@@H](CCC(N)=O)C(=O)N[C@@H](CC1CCCCC1)C(=O)N[C@@H](CC(=O)O)C(=O)N[C@@H](CC(C)C)C(=O)NCC(=O)N[C@@H](Cc1ccccc1)C(=O)O (Ac-Q[Cha]DLGF-OH) What is its recorded pKd?
6.50

Now the compound CCN(C(=O)[C@H](CC1CCCCC1)NC(=O)[C@H](CCC(N)=O)NC(C)=O)[C@@H](CC(=O)O)C(=O)N[C@@H](CC(C)C)C(=O)N[C@@H](Cc1ccccc1)C(=O)O (Ac-Q[Cha][NEtAsp]LF-OH)
6.28

Now the compound CC(=O)N[C@@H](CCC(N)=O)C(=O)N[C@@H](CC1CCCCC1)C(=O)N[C@@H](CC(=O)O)C(=O)N[C@@H](CC(C)C)C(=O)NCCc1ccccc1 (Ac-Q[Cha]DL-NHPhenethyl)
6.04

Now the compound CC(=O)N[C@@H](CCC(N)=O)C(=O)N[C@@H](CC1CCCCC1)C(=O)N(C)[C@@H](CC(=O)O)C(=O)N[C@@H](CC(C)C)C(=O)N[C@@H](Cc1ccc(Cl)c(Cl)c1)C(=O)O (Ac-Q[Cha][NMeD]L[Phe(3,4-Cl2)]-OH)
7.39

Now the compound CC(C)C[C@H](NC(=O)[C@@H]1CCCN1C(=O)[C@H](CC(C)C)NC(=O)[C@H](CC(=O)O)N(C)C(=O)[C@H](CC1CCCCC1)NC(=O)[C@H](CCC(N)=O)NC(=O)/C=C/c1cccnc1)C(=O)O ({Acryloyl(3-(3-pyridyl),E)}-Q[Cha][NMeD]LPL-OH)
6.75

Now the compound CC(C)C[C@H](NC(=O)[C@H](CC(=O)O)N(C)C(=O)[C@H](CC1CCCCC1)NC(=O)[C@H](CCC(N)=O)NC(=O)/C=C/c1cccnc1)C(=O)N[C@@H](Cc1ccc(Cl)c(Cl)c1)C(=O)O ({Acryloyl(3-(3-pyridyl),E)}-Q[Cha][NMeD]L[Phe(3,4-Cl2)]-OH)
7.34

Now the compound CC(=O)N[C@@H](CCC(N)=O)C(=O)N[C@@H](CC1CCCCC1)C(=O)N[C@@H](CC(=O)O)C(=O)N[C@@H](CC(C)C)C(=O)N[C@H](CO)Cc1ccccc1 (Ac-Q[Cha]DL[Phe(ol)])
6.12
